Population Mitochondria Different-Phenotype (%) overview
Tested on: U2OS
assay-method-text: Multiplex assay against U2OS
Assay type: toxicity, cell-based
test-conditions: human, 12 h, 1 µM, compound concentration 1 uM, replicate 1
Use % as the unit, but write only the number.

Would you please look over these solved cases?
[[record]]
compound = "Cc1c(Nc2ccc(S(=O)(=O)N3CCN(C)CC3)cc2F)nc2ccc(-c3cnn(C4CC4)c3)cn2c1=O"
units_label = "%"
numeric_value = 15

[[record]]
compound = "CCCCCNC(=N)N/N=C/c1c[nH]c2ccc(OC)cc12.O=C(O)/C=C\\C(=O)O [TEGASEROD MALEATE]"
units_label = "%"
numeric_value = 16

[[record]]
compound = "Cl.NC[C@@H]1O[C@H](C23CC4CC(CC(C4)C2)C3)Cc2c1ccc(O)c2O"
units_label = "%"
numeric_value = 11

[[record]]
compound = "C=CC(=O)Nc1cc(-n2c(=O)ccc3cnc4ccc(-c5ccc(NS(C)(=O)=O)cc5)cc4c32)ccc1C"
units_label = "%"
numeric_value = 4

[[record]]
compound = "CN(c1cc(C(F)(F)F)nc(OCCC(=O)O)n1)c1cccc2c1CCC2"
units_label = "%"
numeric_value = 12


Which Population Mitochondria Different-Phenotype (%) is listed for Cl.Cn1c2c(c3ccc(Cl)c(Cl)c31)C(C#N)C1(CCNCC1)NC2=O (stereo not drawn) ? 14

Also CCOc1ccn(-c2ccc(F)cc2)c(=O)c1C(=O)Nc1ccc(Oc2ccnc(N)c2Cl)c(F)c1 [BMS-777607] ? 11

Also N#CCNC(=O)c1ccc(-c2ccnc(Nc3ccc(N4CCOCC4)cc3)n2)cc1 [MOMELOTINIB] ? 6

----------
Tested on: HEK-293T
assay-method-text: Multiplex assay against HEK293T
Type: toxicity, cell-based
test-conditions: human, 48 h, 10 µM, compound concentration 10 uM, replicate 1
readout-type: Population Mitotic Cells (%)
Use % as the unit, but write only the number.

Would you please look over these solved cases?
[[record]]
compound = "CC(C)[C@H](CO)Nc1nc(Nc2cccc(Cl)c2)c2ncn(C(C)C)c2n1 [PURVALANOLA]"
readout_type = "Population Mitotic Cells (%)"
numeric_value = 14

[[record]]
compound = "C[C@@H](Oc1cc(-n2cnc3ccc(CN4CCN(C)CC4)cc32)sc1C(N)=O)c1ccccc1C(F)(F)F [GSK-461364]"
readout_type = "Population Mitotic Cells (%)"
numeric_value = 22

[[record]]
compound = "CC(C)C[C@H](NC(=O)[C@H](Cc1ccccc1)NC(=O)CNC(=O)CNC(=O)[C@@H](N)Cc1ccc(O)cc1)C(=O)O [ENKEPHALIN]"
readout_type = "Population Mitotic Cells (%)"
numeric_value = 60

[[record]]
compound = "CCCc1cc(C)[nH]c(=O)c1CNC(=O)c1cc(-c2ccc(N3CCN(C(C)C)CC3)nc2)cc2c1cnn2C(C)C"
readout_type = "Population Mitotic Cells (%)"
numeric_value = 4

[[record]]
compound = "Cl.NC[C@@H]1O[C@H](C23CC4CC(CC(C4)C2)C3)Cc2c1ccc(O)c2O"
readout_type = "Population Mitotic Cells (%)"
numeric_value = 76


Which Population Mitotic Cells (%) is listed for CN1C(=O)[C@@H](NC(=O)c2cc3ccccc3[nH]2)N=C(c2ccccc2)c2ccccc21 [DEVAZEPIDE] ? 33

Also CN(c1cc(C(F)(F)F)nc(OCCC(=O)O)n1)c1cccc2c1CCC2 ? 63

Also Cc1ccc(S(=O)(=O)NC2c3ccccc3Oc3ccccc32)cc1 ? 63

----------
Tested on: Fibroblast
assay-method-text: Multiplex assay against human fibroblast
Format: toxicity, cell-based
test-conditions: 12 h, 1 µM, compound concentration 1 uM, replicate 1
readout-type: Population Pyknosed Nuclei (%)
Use % as the unit, but write only the number.

Would you please look over these solved cases?
[[record]]
compound = "CC(Cc1ccc(O)c(O)c1)C(C)Cc1ccc(O)c(O)c1 (stereo unspecified) [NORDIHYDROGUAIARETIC ACID]"
readout_type = "Population Pyknosed Nuclei (%)"
units_label = "%"
numeric_value = 29

[[record]]
compound = "CC(C)c1cc(Nc2nc(N3CCC[C@H](N)C3)ncc2C(N)=O)cc(C(C)C)n1"
readout_type = "Population Pyknosed Nuclei (%)"
units_label = "%"
numeric_value = 30

[[record]]
compound = "Cc1ccc(S(=O)(=O)NC2c3ccccc3Oc3ccccc32)cc1"
readout_type = "Population Pyknosed Nuclei (%)"
units_label = "%"
numeric_value = 27

[[record]]
compound = "CCOc1ccn(-c2ccc(F)cc2)c(=O)c1C(=O)Nc1ccc(Oc2ccnc(N)c2Cl)c(F)c1 [BMS-777607]"
readout_type = "Population Pyknosed Nuclei (%)"
units_label = "%"
numeric_value = 10

[[record]]
compound = "Cc1c(Nc2ccc(S(=O)(=O)N3CCN(C)CC3)cc2F)nc2ccc(Nc3cnn(C4CC4)c3)cn2c1=O"
readout_type = "Population Pyknosed Nuclei (%)"
units_label = "%"
numeric_value = 19


Attention now shifts to the item below.
Which Population Pyknosed Nuclei (%) is listed for CCOC(=O)CCNc1cc(N2CCc3ccccc3CC2)nc(-c2ccccn2)n1 ? 16

----------
System: Fibroblast
assay-method-text: Multiplex assay against human fibroblast
Assay type: toxicity, cell-based
test-conditions: 24 h, 1 µM, compound concentration 1 uM, replicate 2
readout-type: Population Pyknosed Nuclei (%)
Use % as the unit, but write only the number.

[[record]]
compound = "N#Cc1cccc(C(=O)Nc2cc(-c3ccccc3)nn2-c2ccccc2)c1"
numeric_value = 10

[[record]]
compound = "CC(C)c1cc(Nc2nc(N3CCC[C@H](N)C3)ncc2C(N)=O)cc(C(C)C)n1"
numeric_value = 20

[[record]]
compound = "CC[C@H](Nc1ncnc2[nH]cnc12)c1nc2cccc(F)c2c(=O)n1-c1ccccc1"
numeric_value = 12

[[record]]
compound = "CCCCN(CC)c1nc(C)nc2c1c(C)cn2-c1c(C)cc(C)cc1C.Cl"
numeric_value = 15

[[record]]
compound = "Cc1ccc(NC(=O)Nc2cc(C(F)(F)F)ccc2F)cc1Nc1ccc2c(c1)NC(=O)/C2=C\\c1ccc[nH]1"
numeric_value = 3

[[record]]
compound = "C=CC(=O)Nc1cc(-n2c(=O)ccc3cnc4ccc(-c5ccc(NS(C)(=O)=O)cc5)cc4c32)ccc1C"
numeric_value = 11


Report Population Pyknosed Nuclei (%) for NC(=O)c1ccc2nc(-c3ccc(C4(N)CCC4)cc3)c(-c3ccccc3)n2n1 tested on Fibroblast. 14

Also CCOC(=O)CCNc1cc(N2CCc3ccccc3CC2)nc(-c2ccccn2)n1 ? 4

Also Cl.Cn1c2c(c3ccc(Cl)c(Cl)c31)C(C#N)C1(CCNCC1)NC2=O (configuration not stated) ? 1

Also Cl.NC[C@@H]1O[C@H](C23CC4CC(CC(C4)C2)C3)Cc2c1ccc(O)c2O ? 6

Also Cc1c(P(=S)(c2ccccc2)c2ccccc2)n2ccccc2[n+]1C/C=C/c1ccccc1.[Br-] ? 3

----------
Growth Rate overview
Test system: U2OS
assay-method-text: Incucyte cell viability with U2OS; further: filed as whole numbers so only -1 and 0 and 1 occur
Format: toxicity, cell-based
test-conditions: human, 18 h, 10 µM, compound concentration 10 uM, replicate number 1, timepoint 18 hours
Quick one: just the number, no unit, thanks!

Would you please look over these solved cases?
[[record]]
compound = "NS(=O)(=O)c1cc(NC(=O)Cc2ccccc2)ccc1Oc1cccc(Cl)c1 [BAY-1797]"
readout_type = "Growth Rate"
numeric_value = 0

[[record]]
compound = "COc1cc(OC)c(NC(=O)c2ccc(Cc3cc4c(cc3C)C(C)(C)CCC4(C)C)o2)c(OC)c1"
readout_type = "Growth Rate"
numeric_value = 1

[[record]]
compound = "COc1cccc(CNC(=O)c2nc3scc(COCc4ccc(C(=O)O)cc4)c3c(=O)[nH]2)c1 [T-26c]"
readout_type = "Growth Rate"
numeric_value = 1

[[record]]
compound = "CC(/C=C1\\SC(=S)N(CCCC(=O)Nc2ccc(C(=O)O)c(O)c2)C1=O)=C\\c1ccccc1"
readout_type = "Growth Rate"
numeric_value = 1

[[record]]
compound = "Cc1ccc(NC(=O)Nc2cc(C(F)(F)F)ccc2F)cc1Nc1ccc2c(c1)NC(=O)/C2=C\\c1ccc[nH]1"
readout_type = "Growth Rate"
numeric_value = 0

[[record]]
compound = "CCCCN(Cc1ccccc1)C(=O)c1ccc(S(=O)(=O)Nc2ccccc2)cc1"
readout_type = "Growth Rate"
numeric_value = 1

[[record]]
compound = "Cl.O=C(Cc1ccc(Cl)c(Cl)c1)N1CCCC[C@H]1CN1CCCC1"
readout_type = "Growth Rate"
numeric_value = 1

[[record]]
compound = "CCCOc1ccn2c(C(C)=O)cc(-c3cccc(OC)c3)c2c1"
readout_type = "Growth Rate"
numeric_value = 1

[[record]]
compound = "CC(C)(C)c1ccc(C(=O)Nc2cn3cc(-n4ccnc4)ccc3n2)cc1.Cl.Cl"
readout_type = "Growth Rate"
numeric_value = 1

[[record]]
compound = "Cc1c(F)cccc1NC(=O)Nc1ccc(Cl)c(S(=O)(=O)[C@H]2CCCNC2)c1O [DANIRIXIN]"
readout_type = "Growth Rate"
numeric_value = 0


Attention now shifts to the item below.
Which Growth Rate is listed for CC(C)C[C@H](NC(=O)N1CCCCCC1)C(=O)N[C@H](Cc1cn(C)c2ccccc12)C(=O)N[C@H](Cc1ccccn1)C(=O)O ? 1
